# protocolSummary: yeast display, Sf9 membrane polyspecificity reagent, FACS + sequencing; frameworks hold sequencing errors
experimentalReadout: polyreactivity (PSR sort gate)

Some solved cases for reference:
QVQLVESGGGLVQAGGSHRLSCAASGRTFYINAMGWYRQAPGKERELVAAISIRGGGTYYADSVKGRFTISRDNAKNTVYLQMNSLKPEDTAVYYCAAEYTEGYTHDYWGQGTQVTVSS
low polyreactivity
QVQLVESGGGLVQAGGSLRLSCAASGIIFYRNARGWYRQAPGKERELVAAISSRGGNTYYADSVKGRFTISRDNAKNTVYLQMNSLQPEDTAVYYCARDSYSLSRTYDSWGQGTQVTLSS
high polyreactivity
QVQLVESGGGLVQAGGSLRLSCAASGFTFKSYAMGWYRQAPGKEREFVASISRRGGSTYYADSVKGRFTISRDNAKNTVYLQMNSLKPEDTAVYYCATDRPNWVFVDYNYWGQGTQVTVSS
high polyreactivity
QVQLVESGGGLVQAGGSLRLSCAASGSIVYYNAMGWYRQAPGKERELVASISNGGSTDYADSVKGRFTISRDNAKNTVYLQMNSLKPEDTAVYSCNAKQSYRSEYDYWGQGTQVTVSS
low polyreactivity
QVQLVESGGGLVQAGGSLRLSCAASGSIFRYYAMGWYRQAPGKERELVAAISSSGGSTYYADSVKGRFTISRDNAKNTVYLQMNSLKPEDTAGYYCAAVYTQSNSATMYYWGQGTQVTVSS
high polyreactivity

Give me polyreactivity (PSR sort gate) for each of these sequences, listed below.
1. QVQLVESGGGLVQAGGSLRLSCAASGPTFNRYTMGWYRQAPGKERELVATITGGGSTNYADSVKGRFTISRDNAKNTVYLQMNSLKPEDTAVYYCARAVVQSRGPPRYKTPYDYWGQGTQVTVSS
2. QVQLVESGGGLVQAGGSLRLSCAASGFTFPSYAMGWYRQAPGNERELVAVLSRRGGSTYYADSVKGRFTISRDNAKNTVYLQMNSLKPEDTAVYYCAADFRYYLTTRFNYWGQGTQVTVSS
3. QVQLVESGGGLVQAGGSLRLTCAASGRTFYYYAMGWYRKAPGKERELVAAIDSDGSTTYADSVKGRFTISRDNAKNTVYLQINSLKPEDTAVYYCAAAFPTYRHYYWGQGTQVTVSS
4. QVQLVESGGGLVQAGGSLRLSCAASGRIFKYYAMGWYRQAPGKERELVATITSGGRTNYADSVKGRFTISRDNAKNTVYLQMNSLKPEDTAVYYCARRPPASSRYDYWGQGTQVTVSS

["low polyreactivity", "high polyreactivity", "low polyreactivity", "high polyreactivity"]

Give me polyreactivity (PSR sort gate) for each of these sequences, listed below.
1. QDQLVESGGGLVQAGGSLRLSCAASGRIFKYKAMGRYRQAPGKERELVAAIRRSGGSTYYADSVKGRFTISRDYAKNTVYLQMNSLKPEDTAVYFCNRLYGPGFKSVYGYDYWGQGTQVTVSS
2. QVQLVESGGGLVQAGGSLRLSCDDSGRTFYPYAMGRYRHAPGKERELVAAISYRGGSTYYADSVKGRFTISRDNAKNTVYLQMNCLKPEDRAVYYCAKRGYASGSKWDYGYWGQGTQLTVSS

["high polyreactivity", "high polyreactivity"]

---

# protocolSummary: yeast display, Sf9 membrane polyspecificity reagent, FACS + sequencing; frameworks hold sequencing errors
experimentalReadout: polyreactivity (PSR sort gate)

Some solved cases for reference:
QVQLVESGGGLVQAGGSLRLSCAASGRILTTNAMGRYRQAPGKERELVATISTGSGRTYYADSVKGRFTISRDNAKNTVYLQMNSLKPEDTAVYYCAASRTLRKHRYEYWGQGTQVTVSS
high polyreactivity
QVQLVESGGGLVKAGGSLRLSCAASGRIFWHNAMGWYRQAPGNERELVAAITGGGSTYYADSVKGRFTISRDNAKNTVYLQMNSLKPEDTAVYYCATLGSLRYYWPGYDYWGQGTQVTVSS
low polyreactivity
QVQLVESGGGLVQAGGSLRLSCAASVRIFTRYAMGWYRPAPGKERELVAGISYRGGGTYYADSVKGRFTISRDNAKNTVYLQMNSLKPEDTAVYYCATRRYPYSLLYKYWGQGTQVTVSS
high polyreactivity
QVQLVESGGGLVQAGGILRLSCAASGRIFYYNAMGGYRQAPGKERELVAAITSGGSTNYADSVKGRFTISRDNAKNTVYLQMNSLKPEDTAVYYCAADYYYYVAGVHYDYWGQGTQVTVSS
low polyreactivity
QVQLVESGGGLVQAGGSLRLSCAASGRTFLYNAMGWYRQAPGKERELVASLTRRGGTTYYADSVKGRFTISRDFAKNNVYFQMISLKPEVTAVYYCNAQPGISYYYYGHWYGYWGQGTQVTVSS
high polyreactivity

Give me polyreactivity (PSR sort gate) for each of these sequences, listed below.
1. QVHLQESGGGLMQAGGNLRLSCAASGYISTHYDMDWYRQAPGKERELVARIDDGAITNYADSVKGRFTISRDNAKNTVYLQMNSLKPEDTEVYYCAVYSGDDYYHDYWGQGTQVTVSS
2. QVQLVESGGGLVQAGGSLRLSCAASGSIFEDYAMGWYRQAPGKERELDAAIDWGDGDTYYADSVKGRFTISRDNAKNSVYLQMNSLKPEDTAVYYCAADLVGYSGDYFDEEYYWGQGTQVTVSS
3. QVQLVESGGGLVQAGGSLRLSCAASGSIFRAYAMGWYRQAHGKERELVAAITGNGARTYYADSVKGRFTISRDNAKNTVYLQMNSLKPEDTAVYYCAKRGNRQHRWWYDYWGQGTQVTVSS
4. QVQLVESGGGLVQAGGSLRLSCAASGSIFTYTMGWYRQAPGKERELVAVISRSGGRTYYADSVKGRFTISRDNAKNTVYLQMNSLKPEDTAVYYCATDGHNGYYGRYDYWGQGTQVTVSS
5. QVQLVESGGGLVQAGGSLRLSCAASGRTFSYYAMGWYRQAPGKERELVASISGGGRTNYADSVKGRFTISRDNAKITVYLQMNSVKPEDTAVYYCAASYQITRQYKRGYWGQGTQVTVSS
6. QVQLVESGGGLVQAGGSLRLSCAASGRIFGGNTMGWYRQAPGKEREFVAAITQSGTRTYYADSVKGRFTISRDNAKNTVYLQRNSLKPEDTAVDYCAAEGYWYPYDYWRQGTQVTVSS

low polyreactivity
high polyreactivity
low polyreactivity
high polyreactivity
high polyreactivity
high polyreactivity
